- TGT: JAK1 kinase (Homo sapiens, UniProt P23458)
- Construct: purchased Invitrogen PV4744
- Sequence (P23458 866-1154 limits assumed): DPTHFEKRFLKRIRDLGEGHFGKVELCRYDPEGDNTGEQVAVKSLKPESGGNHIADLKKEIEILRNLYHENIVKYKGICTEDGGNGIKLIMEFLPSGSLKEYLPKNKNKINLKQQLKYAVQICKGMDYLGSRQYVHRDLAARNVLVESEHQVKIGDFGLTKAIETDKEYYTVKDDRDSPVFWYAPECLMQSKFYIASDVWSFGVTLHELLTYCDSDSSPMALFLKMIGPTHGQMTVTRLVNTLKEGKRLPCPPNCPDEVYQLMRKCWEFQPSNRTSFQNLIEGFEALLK
- ASSAY_OVERVIEW: In vitro inhibitory activity on JAK1 kinase (ADP-Glo Kinase Assay)
- Format: biochemical
- CONDITION_INFO: JAK1 kinase 4 nM, 1 mM ATP
RECORDED_ENDPOINT: IC50

Sample records with IC50:
Cn1cc(Nc2ncc(C#N)c(C3=CC4CCC(C3)N4C(=O)NCC(F)(F)F)n2)cn1 (centres unmarked) ... 100 to 300 nM
CCCS(=O)(=O)N1CC(N2C3C=C(c4ccnc(Nc5cnn(C)c5)n4)CC2CC3)C1 (centres unmarked) ... > 1000 nM

q: Please report the recorded IC50 for Cc1cnc(Nc2cnn(C3CC3)c2)nc1C1=CC2CCC(C1)N2C(=O)NCC(F)(F)F (centres unmarked) .
a: < 100 nM

q: Could you do the same for Cn1cc(Nc2nccc(C3=CC4CCC(C3)N4C(=O)COCC(F)(F)F)n2)cn1 (centres unmarked) , please?
a: 300 to 1000 nM

q: Consider next the compound Cn1cc(Nc2nccc(C3=CC4CCC(C3)N4C(=O)[C@@H]3CC3(F)F)n2)cn1 (some centres unmarked) in the same way.
a: < 100 nM

* * *

- TGT: JAK1 kinase (Homo sapiens)
- Construct: purchased Invitrogen PV4744
- ASSAY_OVERVIEW: In vitro inhibitory activity on JAK1 kinase (ADP-Glo Kinase Assay)
- Type: biochemical
- CONDITION_INFO: JAK1 kinase 4 nM, 1 mM ATP
RECORDED_ENDPOINT: IC50

Examples from the recorded data:
Cn1cc(Nc2ncc(Cl)c(C3=C[C@H]4CC[C@@H](C3)N4C(=O)[C@@H]3CC3(F)F)n2)cn1 ... < 100 nM
Cn1cc(Nc2nccc(C3=CC4CCC(C3)N4C(=O)C34CC(C(F)(F)F)(C3)C4)n2)cn1 (stereo not shown) ... > 1000 nM
Cn1cc(Nc2ncc(Cl)c(C3=CC4CCC(C3)N4C(=O)[C@@H]3CC3(F)F)n2)cn1 (stereo partly shown) ... < 100 nM

q: Query (compound): Cc1cnc(Nc2cnn(C)c2)nc1C1=CC2CCC(C1)N2C(=O)[C@@H]1CC1(F)F (stereo partly shown) ; field requested: IC50
a: < 100 nM

q: Also check Cn1cc(Nc2nccc(C3=CC4CCC(C3)N4S(=O)(=O)CCC(F)(F)F)n2)cn1 (stereo not shown)
a: > 1000 nM

* * *

- TGT: JAK1 kinase (Homo sapiens)
- Construct: purchased Invitrogen PV4744
- ASSAY_OVERVIEW: In vitro inhibitory activity on JAK1 kinase (ADP-Glo Kinase Assay)
- Format: biochemical
- CONDITION_INFO: JAK1 kinase 4 nM, 1 mM ATP
RECORDED_ENDPOINT: IC50

In the examples that follow, each entry is paired with its recorded IC50.
Cn1cc(Nc2ncc(Cl)c(C3=CC4CCC(C3)N4C(=O)NCC(F)(F)F)n2)cn1 (centres unmarked) [Compound 20] ... < 100 nM
Cc1cnc(Nc2cnn(C)c2C)nc1C1=CC2CCC(C1)N2C(=O)NCC(F)(F)F (centres unmarked) [Compound 27] ... 300 to 1000 nM
Cn1cc(Nc2ncc(S(C)(=O)=O)c(C3=CC4CCC(C3)N4C(=O)NCC(F)(F)F)n2)cn1 (centres unmarked) [Compound 34] ... > 1000 nM
Cn1cc(Nc2nccc(C3=CC4CCC(C3)N4CC3(C)COC3)n2)cn1 (centres unmarked) [Compound 87] ... > 1000 nM
Cc1cnc(Nc2cnn(CCO)c2)nc1C1=CC2CCC(C1)N2C(=O)NCC(F)(F)F (centres unmarked) [Compound 28] ... < 100 nM

q: Give its IC50 value. Item: Cn1cc(Nc2nccc(C3=CC4CCC(C3)N4C(=O)C3CCC3C#N)n2)cn1 (centres unmarked) [Compound 77]
a: < 100 nM

q: Next molecule: Cn1cc(Nc2nccc(C3=CC4CCC(C3)N4C(=O)N3CCC(F)(F)C3)n2)cn1 (centres unmarked) [Compound 8]
a: 300 to 1000 nM

q: What about CC(C)(O)Cn1cc(Nc2nccc(C3=CC4CCC(C3)N4C(=O)[C@@H]3CC3(F)F)n2)cn1 (some centres unmarked) [Compound 41] ?
a: 100 to 300 nM
